# System: TTR
# method description: TTR editing in primary cyno hepatocytes electroporated with Spy Cas9 protein and sgRNAs (Tables 14, 15)
# Format: cell-based, cynomolgus monkey
# stated conditions: Table 14; primary cyno hepatocytes electroporated with Spy Cas9 protein (RNP) and sgRNAs
Strand notation (5' to 3'): a small letter for the sugar, then the base; units joined by * are phosphorothioate-linked, units joined directly phosphodiester-linked; [ ] holds rarer units or linkages, { } end groups; capitals alone tell only the bases. m = 2'-O-methyl; r = 2'-OH (RNA)
Entries and their Avg % Edit
Response body: numeric value in %, unit text excluded.

# example entries with known answers
| molecule | property | number |
| --- | --- | --- |
| G000500: TTR sgRNA modified sequence, Human, SEQ ID No. 107; guide sequence of CR003337 (nucleic acid) guide: mC*mC*mA*rGrUrCrCrArGrCrArArGrGrCrArGrArGrGrGrUrUrUrUrArGrAmGmCmUmAmGmAmAmAmUmAmGmCrArArGrUrUrArArArArUrArArGrGrCrUrArGrUrCrCrGrUrUrArUrCrAmAmCmUmUmGmAmAmAmAmAmGmUmGmGmCmAmCmCmGmAmGmUmCmGmGmUmGmCmU*mU*mU*mU | Avg % Edit | 45.20 |
| G000485: TTR sgRNA modified sequence, Human, SEQ ID No. 92; guide sequence of CR003336 (nucleic acid) guide: mC*mC*mU*rCrCrUrCrUrGrCrCrUrUrGrCrUrGrGrArCrGrUrUrUrUrArGrAmGmCmUmAmGmAmAmAmUmAmGmCrArArGrUrUrArArArArUrArArGrGrCrUrArGrUrCrCrGrUrUrArUrCrAmAmCmUmUmGmAmAmAmAmAmGmUmGmGmCmAmCmCmGmAmGmUmCmGmGmUmGmCmU*mU*mU*mU | Avg % Edit | 22.93 |
| G000494: TTR sgRNA modified sequence, Human, SEQ ID No. 101; guide sequence of CR003360 (nucleic acid) guide: mG*mU*mG*rArGrUrCrUrGrGrArGrArGrCrUrGrCrArUrGrUrUrUrUrArGrAmGmCmUmAmGmAmAmAmUmAmGmCrArArGrUrUrArArArArUrArArGrGrCrUrArGrUrCrCrGrUrUrArUrCrAmAmCmUmUmGmAmAmAmAmAmGmUmGmGmCmAmCmCmGmAmGmUmCmGmGmUmGmCmU*mU*mU*mU | Avg % Edit | 81.53 |

Avg % Edit for G000480: TTR sgRNA modified sequence, Human, SEQ ID No. 87; guide sequence of CR003353 (nucleic acid) guide: mA*mA*mA*rGrGrCrUrGrCrUrGrArUrGrArCrArCrCrUrGrUrUrUrUrArGrAmGmCmUmAmGmAmAmAmUmAmGmCrArArGrUrUrArArArArUrArArGrGrCrUrArGrUrCrCrGrUrUrArUrCrAmAmCmUmUmGmAmAmAmAmAmGmUmGmGmCmAmCmCmGmAmGmUmCmGmGmUmGmCmU*mU*mU*mU is 10.20

Avg % Edit for G000499: TTR sgRNA modified sequence, Human, SEQ ID No. 106; guide sequence of CR005303 (nucleic acid) guide: mU*mG*mA*rArUrCrCrArArGrUrGrUrCrCrUrCrUrGrArGrUrUrUrUrArGrAmGmCmUmAmGmAmAmAmUmAmGmCrArArGrUrUrArArArArUrArArGrGrCrUrArGrUrCrCrGrUrUrArUrCrAmAmCmUmUmGmAmAmAmAmAmGmUmGmGmCmAmCmCmGmAmGmUmCmGmGmUmGmCmU*mU*mU*mU is 83.40

Avg % Edit for G000490: TTR sgRNA modified sequence, Human, SEQ ID No. 97; guide sequence of CR003366 (nucleic acid) guide: mA*mA*mA*rUrArGrArCrArCrCrArArArUrCrUrUrArCrGrUrUrUrUrArGrAmGmCmUmAmGmAmAmAmUmAmGmCrArArGrUrUrArArArArUrArArGrGrCrUrArGrUrCrCrGrUrUrArUrCrAmAmCmUmUmGmAmAmAmAmAmGmUmGmGmCmAmCmCmGmAmGmUmCmGmGmUmGmCmU*mU*mU*mU is 61.67
